Origin of the recorded values: patent EP4786492A1

- TEST_TARGET: DLL3 endogenously expressed on NCI-H82 cells (UniProt Q9NYJ7)
- Sequence (Q9NYJ7 27-618): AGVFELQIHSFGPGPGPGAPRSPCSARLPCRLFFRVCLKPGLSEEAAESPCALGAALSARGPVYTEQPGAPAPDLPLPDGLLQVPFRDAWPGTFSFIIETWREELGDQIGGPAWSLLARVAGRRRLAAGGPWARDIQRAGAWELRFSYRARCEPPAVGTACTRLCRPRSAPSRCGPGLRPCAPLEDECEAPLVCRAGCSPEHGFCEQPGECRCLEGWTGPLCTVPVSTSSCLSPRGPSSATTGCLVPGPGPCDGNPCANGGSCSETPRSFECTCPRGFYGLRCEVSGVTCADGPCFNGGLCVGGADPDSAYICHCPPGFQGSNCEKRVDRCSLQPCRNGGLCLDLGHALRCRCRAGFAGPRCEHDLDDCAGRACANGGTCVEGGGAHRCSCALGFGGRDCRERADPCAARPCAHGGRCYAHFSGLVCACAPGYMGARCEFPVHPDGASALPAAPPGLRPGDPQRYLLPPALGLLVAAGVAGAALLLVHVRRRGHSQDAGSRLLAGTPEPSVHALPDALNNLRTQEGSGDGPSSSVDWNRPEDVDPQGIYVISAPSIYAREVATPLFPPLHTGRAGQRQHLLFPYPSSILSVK
- MEASUREMENT_DESCRIPTION: FACS on NCI-H82 cells; antibody 0.032 nM
METRIC: MFI

Answered cases to consult:
Hab006VL4VH2-hFc (Fc fusion, part only; not given: Linker and human IgG1 Fc, not shown: a dimerising Fc or GST) chain, part: DIVMTQSPDSLAVSLGERATINCRATKSISKYLAWYQQKPGQTNKLLIFSGSTLQSGVPDRFSGSGSGTDFTLTISSLQAEDVAVYYCQQHHEYPYTFGGGTKVEIKEVQLVQSGAEVKKPGASVKVSCKASGYTFTSYWMHWVRQAPGQRLEWMGVIDPSDSLANYNQEFKGRVTLTVDTSASTAYMELSSLRSEDTAVYYCARDSTVVAPMDYWGQGTTVTVSS: 250
Hab009VL3aVH1-hFc (scFv, part only; not given: VL-VH linker and human IgG1 Fc, V domains shown, not shown: another chain or arm of the molecule; a dimerising Fc or GST; small tags and cut ends) VL: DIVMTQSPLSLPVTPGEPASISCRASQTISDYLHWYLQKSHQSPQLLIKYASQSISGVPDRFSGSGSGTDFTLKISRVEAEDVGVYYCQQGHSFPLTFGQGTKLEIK VH: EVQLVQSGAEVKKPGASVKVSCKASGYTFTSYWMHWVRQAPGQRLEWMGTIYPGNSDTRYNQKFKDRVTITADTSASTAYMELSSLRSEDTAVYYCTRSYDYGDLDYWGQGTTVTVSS: 371
mab006 scFv-hFc (Fc fusion, part only; not given: linker and human IgG1 Fc, not shown: a dimerising Fc or GST) chain, part: DVQITQSPSYLAASPGETITINCRATKSISKYLAWYQEKPGKTNKLLIFSGSTLQSGIPSRFRGSGSGTDFTLTISSLEPEDFAMYYCQQHHEYPYTFGGGTKLEIKQVQLQQPGAELVRPGTSVKLSCKASGYTFTSYWMHWVRQRPGQGLEWIGVIDPSDSLANYNQEFKGKATLTVDTSSSTAYMQLSSLTSEDSAVYYCARDSTVVAPMDYWGQGTSVTVSS: 292

stdin: For the binder Hab006VL4VH1-hFc (scFv, part only; not given: scFv linker and human IgG1 Fc, V domains shown, not shown: another chain or arm of the molecule; a dimerising Fc or GST; small tags and cut ends) VL: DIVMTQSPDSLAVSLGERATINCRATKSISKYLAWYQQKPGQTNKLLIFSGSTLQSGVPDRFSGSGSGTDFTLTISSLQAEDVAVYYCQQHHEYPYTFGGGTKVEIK VH: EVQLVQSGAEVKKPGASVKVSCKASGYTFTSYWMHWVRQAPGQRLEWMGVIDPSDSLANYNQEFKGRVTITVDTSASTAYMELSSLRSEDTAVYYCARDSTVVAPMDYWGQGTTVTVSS , report MFI.
stdout: 252
